Quick list: Wheal Area per entry.
# System: anaesthesized rats
# protocol-text: wheal test, intradermal injection
# Format: in vivo, rat
# measurement-context: 10 ug peptide intradermally
Non-standard residues stand in square brackets, D forms with d. Residues, ends and D or L forms follow the SMILES beside them. *: point of attachment. dAla(cis-4-NHCOPyz-cHex) = N[C@H](C[C@H]1CC[C@@H](NC(=O)c2cnccn2)CC1)C(=O)O; dPhe(4-Cl) = N[C@H](Cc1ccc(Cl)cc1)C(=O)O; d2Nal = N[C@H](Cc1ccc2ccccc2c1)C(=O)O; Lys(iPr) = CC(C)NCCCC[C@H](N)C(=O)O; Orn(iPr) = CC(C)NCCC[C@H](N)C(=O)O; d3Pal = N[C@H](Cc1cccnc1)C(=O)O; Picolinoyl = O=C(c1ccccn1)*; Nva = CCC[C@H](N)C(=O)O

- compound: "CC(=O)N[C@H](Cc1ccc2ccccc2c1)C(=O)N[C@H](Cc1ccc(Cl)cc1)C(=O)N[C@H](Cc1cccnc1)C(=O)N[C@@H](CO)C(=O)N[C@@H](CCCCNC(=O)c1ccccn1)C(=O)N[C@H](CCCCNC(=O)c1ccccn1)C(=O)N[C@H](C(=O)N[C@@H](CCCNC(C)C)C(=O)N1CCC[C@H]1C(=O)N[C@H](C)C(N)=O)C(C)C [compound 26118] (Ac-[d2Nal][dPhe(4-Cl)][d3Pal]SK(Picolinoyl)[dK](Picolinoyl)V[Orn(iPr)]P[dA]-NH2)"
  Wheal Area (mm^2 /10 μg): 119.6
- compound: "CC[C@H](C)[C@H](NC(=O)[C@@H](CCCCNC(=O)c1ccccn1)NC(=O)[C@H](CCCCNC(=O)c1ccccn1)NC(=O)[C@H](CO)NC(=O)[C@@H](Cc1cccnc1)NC(=O)[C@@H](Cc1ccc(Cl)cc1)NC(=O)[C@@H](Cc1ccc2ccccc2c1)NC(C)=O)C(=O)N[C@@H](CCCCNC(C)C)C(=O)N1CCC[C@H]1C(=O)N[C@H](C)C(N)=O [compound 26020] (Ac-[d2Nal][dPhe(4-Cl)][d3Pal]SK(Picolinoyl)[dK](Picolinoyl)I[Lys(iPr)]P[dA]-NH2)"
  Wheal Area (mm^2 /10 μg): 110.7
- compound: "CC(=O)N[C@H](Cc1ccc2ccccc2c1)C(=O)N[C@H](Cc1ccc(Cl)cc1)C(=O)N[C@H](Cc1cccnc1)C(=O)N[C@@H](CO)C(=O)N[C@@H](Cc1ccc(O)cc1)C(=O)N[C@H](C[C@H]1CC[C@@H](NC(=O)c2cnccn2)CC1)C(=O)N[C@@H](CC(C)C)C(=O)N[C@@H](CCCCNC(C)C)C(=O)N1CCC[C@H]1C(=O)N[C@H](C)C(N)=O [compound 26418] (Ac-[d2Nal][dPhe(4-Cl)][d3Pal]SY[dAla(cis-4-NHCOPyz-cHex)]L[Lys(iPr)]P[dA]-NH2)"
  Wheal Area (mm^2 /10 μg): 95.0
- compound: "CCC[C@H](NC(=O)[C@@H](CCCCNC(=O)c1ccccn1)NC(=O)[C@H](CCCCNC(=O)c1ccccn1)NC(=O)[C@H](CO)NC(=O)[C@@H](Cc1cccnc1)NC(=O)[C@@H](Cc1ccc(Cl)cc1)NC(=O)[C@@H](Cc1ccc2ccccc2c1)NC(C)=O)C(=O)N[C@@H](CCCCNC(C)C)C(=O)N1CCC[C@H]1C(=O)N[C@H](C)C(N)=O [compound 25989] (Ac-[d2Nal][dPhe(4-Cl)][d3Pal]SK(Picolinoyl)[dK](Picolinoyl)[Nva][Lys(iPr)]P[dA]-NH2)"
  Wheal Area (mm^2 /10 μg): 95.3
- compound: "CC(=O)N[C@H](Cc1ccc2ccccc2c1)C(=O)N[C@H](Cc1ccc(Cl)cc1)C(=O)N[C@H](Cc1cccnc1)C(=O)N[C@@H](CO)C(=O)N[C@@H](CCCCNC(=O)c1ccccn1)C(=O)N[C@H](CCCCNC(=O)c1ccccn1)C(=O)N[C@@H](CC(C)C)C(=O)N[C@@H](CCCNC(C)C)C(=O)N1CCC[C@H]1C(=O)N[C@H](C)C(N)=O [compound 25933] (Ac-[d2Nal][dPhe(4-Cl)][d3Pal]SK(Picolinoyl)[dK](Picolinoyl)L[Orn(iPr)]P[dA]-NH2)"
  Wheal Area (mm^2 /10 μg): 113.0
